Entries and their TGI values follow.
Tested on: OVCAR-3 ovarian
Experiment: NCI tumour cell line growth inhibition, 48 h
test-readout: TGI (µM)

compound: O=C1CNc2cc(N3CCOCC3)ccc2N1
target-desc: OVCAR-3 ovarian
value-prefix: >
reported-result: 100

compound: COc1ccc(Cc2cc(OC)c(OC)c(OC)c2)cc1
target-desc: OVCAR-3 ovarian
value-prefix: =
reported-result: 0.424

compound: N#CC(c1ccccc1)N(CCc1ccccc1)C(=O)c1ccc(C(=O)N(CCc2ccccc2)C(C#N)c2ccccc2)cc1 (centres undefined)
target-desc: OVCAR-3 ovarian
value-prefix: =
reported-result: 47

compound: CC(C)COC(=O)c1ccc(N=Cc2ccc(C=Nc3ccc(C(=O)OCC(C)C)cc3)cc2)cc1
target-desc: OVCAR-3 ovarian
value-prefix: >
reported-result: 100

compound: COc1ccc(/C=C2\C[C@H]3[C@@H]4CC=C5C[C@@H](OC(C)=O)CC[C@]5(C)[C@H]4CC[C@]3(C)C2=O)cc1OC
target-desc: OVCAR-3 ovarian
value-prefix: >
reported-result: 100

compound: CSCCC(NC(=O)Cc1ccc(C(=O)c2ccccc2)cc1)C(=O)N1CCN(CCCCN2c3ccccc3Sc3cc(N=[N+]=[N-])ccc32)CC1 (centres undefined)
target-desc: OVCAR-3 ovarian
value-prefix: >
reported-result: 100

compound: CCOC(CN(C)C(=O)Nc1ccc(Cl)c(Cl)c1)OCC
target-desc: OVCAR-3 ovarian
value-prefix: >
reported-result: 10

compound: O=C(/C=C\c1ccsc1)c1ccccc1
target-desc: OVCAR-3 ovarian
value-prefix: =
reported-result: 27.9

compound: O=C(CN(Cc1ccccc1)Cc1ccccc1)N1CCc2c([nH]c3ccccc23)C1c1cccnc1 (centres undefined)
target-desc: OVCAR-3 ovarian
value-prefix: =
reported-result: 34

* * *

Tested on: SK-MEL-2 melanoma
Test: NCI tumour cell line growth inhibition, 48 h

compound: COc1ccc(CN2C(=O)/C(=C\C(=O)c3ccc(OCCN4CCCC4)cc3)c3ccccc32)cc1
GI50: 17.1 µM
--
compound: COc1ccc(/C(=C/c2ccc3ccccc3c2)c2nn[nH]n2)cc1OC
GI50: 4.36 µM
--
compound: CC(C)C(=O)Nc1ccc(-c2nc(-c3cccc(OCCN4CCOCC4)c3)c(-c3ccnc(Br)c3)[nH]2)cc1
GI50: 2.21 µM
--
compound: CCC(CC)c1cc(N[C@H]2CC[C@H](N)C2)n2nccc2n1
GI50: 1.64 µM
--
compound: Clc1ccc(C2CC(c3cccc(Nc4ccncc4)c3)=NN2c2ccccc2)cc1 (stereo unspecified)
GI50: 1.98 µM
--
compound: Fc1ccc(Nc2ncc(-c3cc(F)c(Cl)cc3Cl)s2)cc1Cl
GI50: 22.8 µM

* * *

Test system: HCC-2998 colon
Test: NCI tumour cell line growth inhibition, 48 h; in the data active means GI50 below about 0.43 µM; inactive means the rest
Possible outcomes: t for active, f for inactive

compound: CC(C)C(=O)Nc1ccc(-c2nc(-c3cccc(OCCN4CCOCC4)c3)c(-c3ccnc(Br)c3)[nH]2)cc1
discrete-label: f
//
compound: CCC1=C[C@@H]2CN(C1)Cc1c([nH]c3ccccc13)[C@@](C(=O)OC)(c1cc3c(cc1OC)N(C)[C@H]1[C@@](O)(C(=O)OC)[C@H](OC(C)=O)[C@]4(CC)C=CCN5CC[C@]31[C@@H]54)C2
discrete-label: t
//
compound: O=C(/C=C\c1cc(Br)ccc1O)/C=C/c1cc(Br)ccc1O
discrete-label: f
//
compound: Cc1cc(I)cc(CNCCN2CCOCC2)c1O
discrete-label: f
//
compound: Clc1ccc(-c2nc3c(-c4ccccc4)nc(-c4ccccc4)cn3c2-c2ccc(Cl)cc2)cc1
discrete-label: f
//
compound: CCCCCCCCCCCCNC(=O)N[C@H](C(=O)N[C@H]1/C=C/CCNC(=O)/C=C/[C@H](C)NC1=O)C(C)C
discrete-label: t
//
compound: CCCCOC(=O)/C=C\C(=O)NC(N)=O
discrete-label: f
//
compound: CN1C(=O)/C(=C2\S/C(=N\c3nnc(-c4ccccc4)o3)NC2=O)c2ccccc21
discrete-label: f
//
compound: O=C(NCCCl)NCCN1c2nc3ccccc3cc2Sc2cc3ccccc3nc21
discrete-label: f
//
compound: CN1CCN(Cc2ccc(NC(=O)c3cncc(C#Cc4c(N)ncc5c(F)cccc45)c3)cc2C(F)(F)F)CC1
discrete-label: f
//
compound: NC(=O)c1cc(I)ccc1NC(=O)/C=C/c1ccccc1Cl
discrete-label: f
//
compound: CCOC(=O)Nc1ccc2nc(N3CCCCCC3)sc2c1
discrete-label: f
//
compound: C=C1C[C@@H](O)[C@@H](Br)C(C)(C)[C@]12CCC(C)(Br)C(Cl)C2 (some centres not stated)
discrete-label: f
//
compound: Cc1ccc(/C=C(/C#N)n2nnc3ncccc32)cc1
discrete-label: f
//
compound: Nc1c(C(=O)c2ccc(C#CCN3CCOCC3)cc2)cnn1-c1ccc(F)cc1
discrete-label: f
//
compound: COc1ccc(CN2C(=O)/C(=C\C(=O)c3ccc(OCCN4CCCC4)cc3)c3ccccc32)cc1
discrete-label: f
//
compound: COc1cc(-c2cc(-c3cccs3)c(C#N)c(N3CCOCC3)n2)cc(OC)c1OC
discrete-label: f

* * *

Tested on: T-47D breast
Assay: NCI tumour cell line growth inhibition, 48 h

compound: CN1CCN(Cc2ccc(NC(=O)c3cncc(C#Cc4c(N)ncc5c(F)cccc45)c3)cc2C(F)(F)F)CC1
value-prefix: =
TGI, µM: 6.38

compound: Cc1cc2c(C(=O)NCC#N)cccc2n1-c1nc2c(c(NCc3ccccc3)n1)CCCC2
value-prefix: =
TGI, µM: 1.53

compound: CCCCC(O)(c1ccccc1)C(O)(c1ccccc1)c1c(F)c(F)c(F)c(F)c1F (stereo not given)
value-prefix: >
TGI, µM: 100

compound: CCCCCCCCCC(=O)NCCc1c[nH]c2ccc(OC)cc12
value-prefix: =
TGI, µM: 54

compound: Clc1cc2nc(C3CCCCO3)[nH]c2cc1Cl (stereo not given)
value-prefix: >
TGI, µM: 93.9

compound: Cc1ccc(NC(=O)CC(=O)N2N=C(N3CCCCC3)CC2c2ccccc2)cc1 (stereo not given)
value-prefix: >
TGI, µM: 100

compound: COc1ccc(Cc2cc(OC)c(OC)c(OC)c2)cc1
value-prefix: =
TGI, µM: 89.8

compound: C=C[C@]1(C)CC(=O)C(C(C)C=O)[C@]12C(=O)Oc1cccc(C)c1C2=O (stereo not given in full)
value-prefix: =
TGI, µM: 34.1

compound: O=C(CN1CCN(CCN2C(=O)c3cccc4cccc(c34)C2=O)CC1)Nc1ccc2ncsc2c1
value-prefix: =
TGI, µM: 30.5

* * *

Test system: SF-268 CNS
Test: NCI tumour cell line growth inhibition, 48 h
test-readout: TGI

compound: COc1ccc(C2CC(c3ccc(NS(=O)(=O)c4cc([N+](=O)[O-])ccc4C)cc3)=NN2S(=O)(=O)c2cc([N+](=O)[O-])ccc2C)cc1 (stereo not given)
reported-result: 79.9 µM

compound: Cc1ccc(N=NN(C)C(C)C(O)Cc2ccccc2)cc1 (stereo not given)
reported-result: > 100 µM

compound: COC(=O)C(=O)C(C#N)c1cccc(Cl)c1 (stereo not given)
reported-result: > 100 µM

compound: CCCCCCCCCCCCNC(=O)N[C@H](C(=O)N[C@H]1/C=C/CCNC(=O)/C=C/[C@H](C)NC1=O)C(C)C
reported-result: 1.04 µM

compound: O=C(CCC(=O)Nc1ccc(Cl)cc1)CC(=O)c1ccc2ccccc2c1
reported-result: > 100 µM

compound: CN(C)CCCOc1ccc(/C=C2/CCC/C(=C/c3ccc(OCCCN(C)C)cc3)C2=O)cc1
reported-result: 4.84 µM

compound: CC(=O)c1cc(CC2Cc3cc4c(cc3C2=O)CCC4)cc2c1CCC2 (stereo not given)
reported-result: > 100 µM

compound: CC(NC(=O)C(N)CC(=O)O)C(=O)OC12CC3CC(CC(C3)C1)C2 (stereo not given)
reported-result: > 100 µM

compound: COc1ccc(N=N/C(=N\NC(=O)c2cc(Br)ccc2O)c2ccc(N(CCC#N)CCC#N)cc2OC)cc1
reported-result: > 150 µg/mL

compound: COc1cccc(C2c3cc4c(cc3OC(NNC(N)=O)C2C)OCO4)c1O (stereo not given)
reported-result: > 72.2 µM

* * *

System: ACHN renal
Experiment: NCI tumour cell line growth inhibition, 48 h

molecule: O=C1Nc2ccc(O)cc2/C1=C\c1ccncc1
TGI: 27.9 µM
//
molecule: N#CC(C(=O)CCC(=O)Nc1ccc(Cl)cc1)c1ccc(Cl)cc1 (configuration not stated)
TGI: > 100 µM
//
molecule: O=CC1CCC=CC1NC(=O)OCc1ccccc1 (configuration not stated)
TGI: > 100 µM
//
molecule: CN1C(=O)/C(=C2\S/C(=N\c3nnc(-c4ccccc4)o3)NC2=O)c2ccccc21
TGI: > 100 µM
//
molecule: CCC(CC)c1cc(N[C@H]2CC[C@H](N)C2)n2nccc2n1
TGI: > 100 µM
//
molecule: O=C(/C=C\c1ccsc1)c1ccccc1
TGI: 21.1 µM
//
molecule: CC1=NN(c2cccc(Cl)c2)C2(C1=Cc1cccs1)C(Cl)C(=O)N2c1nc2ccccc2s1 (configuration not stated)
TGI: 50.6 µM
//
molecule: COc1ccc(N2C(=O)C(=O)N(C)C2=O)c2ccccc12
TGI: > 10 µM
//
molecule: N#CC(C(=O)/C(=N/NC(=O)c1ccccc1O)C(C#N)c1ccc(Br)cc1)c1ccc(Br)cc1 (configuration not stated)
TGI: 26.7 µM
//
molecule: Cc1ccc(C(=O)O)c(/C=C2\Cc3cc(C)cc(C)c3C2=O)c1
TGI: > 100 µM
//
molecule: O=C1C(Cl)=C(Cl)C(=O)N1c1ccccc1Cl
TGI: > 100 µM
//
molecule: CCOC(=O)c1cc(-c2ccc([N+](=O)[O-])cc2)c([N+](=O)[O-])[nH]1
TGI: > 10 µM
//
molecule: Fc1ccc(Nc2ncc(-c3cc(F)c(Cl)cc3Cl)s2)cc1Cl
TGI: 51.5 µM
//
molecule: Nc1c(C(=O)c2ccc(C#CCN3CCOCC3)cc2)cnn1-c1ccc(F)cc1
TGI: > 25 µM
//
molecule: CCOc1ccc(N2C(=O)NC3(c4ccccc4)N(C)C(=O)N(C)C23c2ccccc2)cc1 (configuration not stated)
TGI: > 100 µM
//
molecule: COc1ccc(C2CC(c3ccc(NS(=O)(=O)c4cc([N+](=O)[O-])ccc4C)cc3)=NN2S(=O)(=O)c2cc([N+](=O)[O-])ccc2C)cc1 (configuration not stated)
TGI: > 100 µM
//
molecule: Cc1occc1C(=S)Nc1ccc(Cl)c(C(=O)OCC(C)C)c1
TGI: 43.2 µM
//
molecule: NS(=O)(=O)c1ccc(N=Nc2c(O)[nH]c3ccc(C(=O)NCCc4cnc[nH]4)cc23)cc1
TGI: > 25 µM
//
molecule: CCCCCCCCCC(=O)NCCc1c[nH]c2ccc(OC)cc12
TGI: 30.6 µM
//
molecule: COc1ccc2nc3c(C)cc4ccccc4n3c2c1
TGI: > 100 µM
//
molecule: Cc1ccc2nc(Sc3c([N+](=O)[O-])ncn3C)[nH]c2c1
TGI: > 100 µM
//
molecule: O=S(=O)(O)c1ccc(Nc2ccnc3ccccc23)cc1
TGI: > 100 µM
